tested.target: HIV-1 protease (Human immunodeficiency virus type 1 group M subtype B, UniProt P04585)
Construct: HIV-1 protease enzyme (Sigma Aldrich); purchased Sigma Aldrich
assay.text: HIV-1 protease inhibition assay (fluorescent substrate)
Assay type: biochemical
condition.set: 10 μM compounds dissolved in DMSO; read-out: % Enzyme Inhibition HIV-I protease
experimental.readout: inhibition at 10 µM (%)
Provide the reading as a plain figure in %.

* COc1cc(/C=C/C(O)=C2\CCC/C(=C\c3ccc(O)c(OC)c3)C2=O)ccc1O [Compound 2d] | 37.3

Q) Would you kindly share the measured inhibition at 10 µM for O=C1/C(=C(O)/C=C/c2ccc(Cl)cc2)CCC/C1=C\c1ccc(Cl)cc1 [Compound 2f] ?
A) 9.9

Q) Would you kindly share the measured inhibition at 10 µM for Cc1ccc(/C=C/C(O)=C2\CCC/C(=C\c3ccc(C)cc3)C2=O)cc1 [Compound 2g] ?
A) 20.1

Q) Would you kindly share the measured inhibition at 10 µM for O=C1/C(=C(O)/C=C/c2ccc(O)cc2)CC/C1=C\c1ccc(O)cc1 [Compound 3b] ?
A) 41.1
